biological target: MAP kinase p38 (Homo sapiens, UniProt O15264+Q15759+Q16539+P53778); assay: Inhibition of Tumor necrosis factor alpha release from LPS-induced THP-1 cells by ELISA; type: functional, cell-based
quantity: IC50 (nM)

INSERT INTO results (smiles_repr, assay_result) VALUES
  ('Cc1ccccc1-n1nc(-c2c(-c3cccc(Cl)c3Cl)nc3ccccn23)ccc1=O', 6),
  ('Cc1ccccc1-n1nc(-c2c(-c3ccc(F)cc3Cl)nc3ccccn23)ccc1=O', 20),
  ('O=C1CCC(c2c(-c3ccc(F)cc3Cl)nc3ccccn23)=NN1c1ccccc1Cl', 400),
  ('O=c1ccc(-c2c(-c3ccc(F)cc3Cl)nc3ccccn23)nn1-c1c(Cl)cccc1Cl', 161),
  ('O=C1CCC(c2c(-c3ccc(F)cc3F)nc3ccccn23)=NN1c1c(Cl)cccc1Cl', 10);

---

biological target: MAP kinase p38 (Homo sapiens, UniProt O15264+Q15759+Q16539+P53778); assay: Inhibition of LPS-induced p38-related Tumor necrosis factor alpha release by THP-1 cells at 4000 nM; assay type: functional, cell-based
Here, each record is paired with measured inhibition data.
quantity: inhibition

INSERT INTO measurements (smiles_repr, system_name, quantity, assay_result) VALUES
  ('O=c1ccc(-c2c(-c3cccc(Cl)c3Cl)nc3ccccn23)nn1-c1c(Cl)cccc1Cl', 'MAP kinase p38 (Homo sapiens, UniProt O15264+Q15759+Q16539+P53778)', 'inhibition', '65%'),
  ('O=C1CCC(c2c(-c3cccc(Cl)c3Cl)nc3ccccn23)=NN1c1c(Cl)cccc1Cl', 'MAP kinase p38 (Homo sapiens, UniProt O15264+Q15759+Q16539+P53778)', 'inhibition', '59%'),
  ('O=c1ccc(-c2c(-c3ccc(F)cc3F)nc3ccccn23)nn1-c1c(Cl)cccc1Cl', 'MAP kinase p38 (Homo sapiens, UniProt O15264+Q15759+Q16539+P53778)', 'inhibition', '89%'),
  ('O=c1ccc(-c2c(-c3cccc(C(F)(F)F)c3)nc3ccccn23)nn1-c1c(Cl)cccc1Cl', 'MAP kinase p38 (Homo sapiens, UniProt O15264+Q15759+Q16539+P53778)', 'inhibition', '41%'),
  ('O=c1ccc(-c2c(-c3cccc(C(F)(F)F)c3)nc3ccccn23)nn1-c1ccccc1Cl', 'MAP kinase p38 (Homo sapiens, UniProt O15264+Q15759+Q16539+P53778)', 'inhibition', '48%'),
  ('O=C1CCC(c2c(-c3cccc(C(F)(F)F)c3)nc3ccccn23)=NN1c1ccccc1Cl', 'MAP kinase p38 (Homo sapiens, UniProt O15264+Q15759+Q16539+P53778)', 'inhibition', '72%');

---

biological target: Mitogen-activated protein kinase 9 (Homo sapiens); test: Inhibition of recombinant human flag-tagged JNK2-beta-2 at 5000 nM; assay type: functional
quantity: inhibition (%)

INSERT INTO assay_data (smiles_repr, system_name, assay_result) VALUES
  ('O=c1ccc(-c2c(-c3cccc(Cl)c3Cl)nc3ccccn23)nn1-c1c(Cl)cccc1Cl', 'Mitogen-activated protein kinase 9 (Homo sapiens)', 14),
  ('O=c1ccc(-c2c(-c3ccc(F)cc3F)nc3ccccn23)nn1-c1c(Cl)cccc1Cl', 'Mitogen-activated protein kinase 9 (Homo sapiens)', 11),
  ('O=C1CCC(c2c(-c3cccc(Cl)c3Cl)nc3ccccn23)=NN1c1c(Cl)cccc1Cl', 'Mitogen-activated protein kinase 9 (Homo sapiens)', 26),
  ('Cc1ccccc1-n1nc(-c2c(-c3ccc(F)cc3Cl)nc3ccccn23)ccc1=O', 'Mitogen-activated protein kinase 9 (Homo sapiens)', 16),
  ('Cc1ccccc1-n1nc(-c2c(-c3ccc(F)cc3F)nc3ccccn23)ccc1=O', 'Mitogen-activated protein kinase 9 (Homo sapiens)', 15),
  ('Cc1ccccc1N1N=C(c2c(-c3ccc(F)cc3Cl)nc3ccccn23)CCC1=O', 'Mitogen-activated protein kinase 9 (Homo sapiens)', 4);
